Provide the reported EC50 of each item.
molecular target: rat CB2 (Rattus norvegicus, UniProt Q9QZN9); experiment: rat CB2 cyclase functional assay (HitHunter cAMP); format: cell-based; parameters: expressed in transfected cells; host or cells: HEK; conditions: rat CB2 cyclase (EC50, nM), HEK cells, forskolin 18 μM
Sequence (Q9QZN9 whole entry): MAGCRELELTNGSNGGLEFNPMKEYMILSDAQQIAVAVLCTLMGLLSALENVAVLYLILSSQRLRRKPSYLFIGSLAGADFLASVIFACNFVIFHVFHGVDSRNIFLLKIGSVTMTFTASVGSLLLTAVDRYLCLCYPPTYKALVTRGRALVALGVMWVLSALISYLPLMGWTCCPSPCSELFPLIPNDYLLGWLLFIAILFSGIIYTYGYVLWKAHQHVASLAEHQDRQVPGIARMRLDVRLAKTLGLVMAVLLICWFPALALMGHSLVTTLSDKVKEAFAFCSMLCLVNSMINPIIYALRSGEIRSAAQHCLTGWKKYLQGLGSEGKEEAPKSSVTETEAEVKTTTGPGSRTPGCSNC
One number for each entry, in nM.

{"columns": ["MOLECULE", "TGT", "EC50 [nM]"],
 "data": [
  ["CSCCOc1ccc(C(F)(F)F)cc1C(=O)/N=c1\\cc(C(C)(C)C)n(C)n1C[C@H]1CCCO1", "rat CB2 (Rattus norvegicus, UniProt Q9QZN9)", 1.4],
  ["CCS(=O)(=O)NCCOc1ccc(C(F)(F)F)cc1C(=O)/N=c1\\cc(C(C)(C)C)n(C)n1C[C@H]1CCCO1", "rat CB2 (Rattus norvegicus, UniProt Q9QZN9)", 0.12],
  ["CN1CCC[C@H]1COc1ccc(C(F)(F)F)cc1C(=O)/N=c1\\oc(C(C)(C)C)cn1C[C@H]1CCCO1", "rat CB2 (Rattus norvegicus, UniProt Q9QZN9)", 0.6],
  ["Cn1c(C(C)(C)C)c/c(=N\\C(=O)c2cc(C(F)(F)F)ccc2OCC2CCS(=O)(=O)C2)n1C[C@H]1CCCO1 (stereo partly drawn)", "rat CB2 (Rattus norvegicus, UniProt Q9QZN9)", 7.5],
  ["Cn1c(C(C)(C)C)c/c(=N\\C(=O)c2cc(C(F)(F)F)ccc2OCCC(C)(C)O)n1C[C@H]1CCCO1", "rat CB2 (Rattus norvegicus, UniProt Q9QZN9)", 0.57],
  ["Cn1c(C(C)(C)C)c/c(=N\\C(=O)c2cc(C#N)ccc2OCC(C)(C)O)n1C[C@H]1CCCO1", "rat CB2 (Rattus norvegicus, UniProt Q9QZN9)", 1.8]
]}

For every item below, please supply its EC50.
1. CN1CCC[C@H]1COc1ccc(C(F)(F)F)cc1C(=O)/N=c1\oc(C(C)(C)C)cn1CC1CCC1
2. CC1CCC(COc2ccc(C(F)(F)F)cc2C(=O)N=c2cc(C(C)(C)C)n(C)n2CC2CCCO2)O1 (single isomer, unassigned) [Example 37]
3. Cn1c(C(C)(C)C)c/c(=N\C(=O)c2cc(C(F)(F)F)ccc2OC[C@H]2COC(C)(C)O2)n1C[C@H]1CCCO1

1. 0.19
2. 0.45
3. 1.8

----------
target: Rat CB1 (Rattus norvegicus, UniProt P20272); construct: expressed in transfected cells; host or cells: HEK; test: rat CB1 cyclase functional assay (HitHunter cAMP); type: cell-based; settings: Rat CB1 cyclase (EC50, nM), HEK cells, forskolin 37 μM
Sequence (P20272 whole entry): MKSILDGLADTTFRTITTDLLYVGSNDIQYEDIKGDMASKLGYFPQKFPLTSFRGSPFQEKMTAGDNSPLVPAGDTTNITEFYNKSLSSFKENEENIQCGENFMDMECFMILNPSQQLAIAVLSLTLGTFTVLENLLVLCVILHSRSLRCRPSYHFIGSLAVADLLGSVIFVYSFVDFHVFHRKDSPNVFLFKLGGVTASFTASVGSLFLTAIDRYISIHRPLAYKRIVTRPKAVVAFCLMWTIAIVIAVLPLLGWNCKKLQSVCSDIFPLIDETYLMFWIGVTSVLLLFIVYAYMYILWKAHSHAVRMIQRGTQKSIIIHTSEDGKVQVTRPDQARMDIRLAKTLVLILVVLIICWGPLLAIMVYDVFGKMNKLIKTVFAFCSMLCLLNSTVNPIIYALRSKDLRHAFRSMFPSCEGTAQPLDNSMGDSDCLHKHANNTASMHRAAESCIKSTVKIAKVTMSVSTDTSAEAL
OUTCOME MEASURE: EC50 (nM)
Answers are plain numbers, in nM.

Example cases with answers are listed next.
{"columns": ["COMPOUND", "READOUT VALUE"],
 "data": [
  ["Cn1c(C(C)(C)C)c/c(=N\\C(=O)c2cc(C(F)(F)F)ccc2OCCNS(=O)(=O)C2CC2)n1C[C@H]1CCCO1", 4190],
  ["Cn1c(C(C)(C)C)c/c(=N\\C(=O)c2cc(C(F)(F)F)ccc2OC[C@@H]2CCCO2)n1C[C@H]1CCCO1", 6340],
  ["Cn1c(C(C)(C)C)c/c(=N\\C(=O)c2cc(C(F)(F)F)ccc2OCC(C)(C)O)n1C[C@H]1CCCO1", 7690],
  ["CC1CCC(COc2ccc(C(F)(F)F)cc2C(=O)N=c2cc(C(C)(C)C)n(C)n2CC2CCCO2)O1 (single isomer, unassigned) [Example 36]", 8410],
  ["CCCCn1nc(C(C)(C)C)s/c1=N\\C(=O)c1cc(C(F)(F)F)ccc1OC[C@@H]1CCCN1C", 1680]
]}

For every item below, please supply its EC50.
1. CSCCOc1ccc(C(F)(F)F)cc1C(=O)/N=c1\cc(C(C)(C)C)n(C)n1C[C@H]1CCCO1
2. CCCCn1nc(C(C)(C)C)s/c1=N\C(=O)c1cc(C(F)(F)F)ccc1OCC1CCCCN1C (centres unmarked)
3. Cn1c(C(C)(C)C)c/c(=N\C(=O)c2cc(C(F)(F)F)ccc2OCCC2=CCCC2)n1C[C@H]1CCCO1
4. Cn1c(C(C)(C)C)c/c(=N\C(=O)c2cc(C(F)(F)F)ccc2OC[C@H]2CCCO2)n1C[C@H]1CCCO1

[7530, 1060, 1970, 5510]
